SYSTEM TESTED: wild-type HCV genotype 1b NS5B protein (Hepatitis C virus genotype 1b (isolate Con1) (HCV))
TEST DESCRIPTION: HCV polymerase enzyme assay, wild-type
RUN CONDITIONS: nucleoside triphosphate form, recombinant HCV genotype 1b NS5B
RECORDED METRIC: IC50

Nc1nc2c(ncn2[C@@H]2O[C@H](COP(=O)(O)OP(=O)(O)OP(=O)(O)O)[C@@H](CO)[C@H]2O)c(=O)[nH]1 :: < 250 nM
Nc1nc2c(ncn2[C@@H]2O[C@H](COP(=O)(O)OP(=O)(O)OP(=O)(O)O)[C@@H](CF)[C@H]2O)c(=O)[nH]1 :: < 250 nM
Nc1ncnc2c1ncn2[C@@H]1O[C@H](COP(=O)(O)OP(=O)(O)OP(=O)(O)O)[C@@H](CO)[C@H]1O :: 250 to 1000 nM

Please look at the following molecule next.
Incoming: // lookup IC50 for Nc1ncnc2c1ncn2[C@@H]1O[C@H](COP(=O)(O)OP(=O)(O)OP(=O)(O)O)[C@@H](CF)[C@H]1O
Outgoing: 1000 to 10000 nM

Cited source for all entries: patent US10202411B2
